- Measured On: monkey GPC3-His protein (monkey)
- Test Name: ELISA, monkey GPC3-His coated; antibody 2.67 nM
Readout Name: OD450 nm
Numbers only.

>  <Binder>
hAb006LH2L1 (antibody, human IgG1, V domains shown) VH: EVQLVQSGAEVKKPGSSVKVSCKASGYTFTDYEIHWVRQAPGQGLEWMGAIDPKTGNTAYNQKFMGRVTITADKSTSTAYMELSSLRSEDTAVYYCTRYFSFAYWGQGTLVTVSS VL: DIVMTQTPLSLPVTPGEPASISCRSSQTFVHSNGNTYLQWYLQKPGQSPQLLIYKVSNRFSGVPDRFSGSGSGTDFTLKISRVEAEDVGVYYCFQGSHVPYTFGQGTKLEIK

>  <OD450 nm>
2.46

$$$$
>  <Binder>
hAb006LH1L1 (antibody, human IgG1, V domains shown) VH: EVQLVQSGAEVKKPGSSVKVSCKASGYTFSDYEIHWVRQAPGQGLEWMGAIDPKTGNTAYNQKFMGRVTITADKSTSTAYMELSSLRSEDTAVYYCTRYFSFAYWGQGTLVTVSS VL: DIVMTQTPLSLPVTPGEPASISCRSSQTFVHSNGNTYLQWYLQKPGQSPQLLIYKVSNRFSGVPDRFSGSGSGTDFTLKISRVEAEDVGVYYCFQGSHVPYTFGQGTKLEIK

>  <OD450 nm>
2.43

$$$$

Switching to the query record.
Fill in: OD450 nm of hAb006LH1L1b (antibody, human IgG1, V domains shown) VH: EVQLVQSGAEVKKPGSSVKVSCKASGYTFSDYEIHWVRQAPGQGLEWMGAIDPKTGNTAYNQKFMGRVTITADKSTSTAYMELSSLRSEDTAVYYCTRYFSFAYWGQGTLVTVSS VL: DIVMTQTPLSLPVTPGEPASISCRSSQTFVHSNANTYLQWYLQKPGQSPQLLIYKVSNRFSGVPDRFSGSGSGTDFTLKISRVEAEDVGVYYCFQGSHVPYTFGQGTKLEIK is ___
2.75
